# Tested on: ACHN renal
# method-summary: NCI tumour cell line growth inhibition, 48 h; in the data active means GI50 below about 0.43 µM; inactive means the rest
Choose one outcome from this list and give only that: active, inactive

Please review the following examples before continuing.
>  <molecule>
O=[N+]([O-])c1cccc(/C=C/c2ccccn2)c1

>  <category>
inactive

$$$$
>  <molecule>
Cc1cc(C(=O)N[C@@H](CCC(=O)O)C(=O)O)sc1CC[C@@H]1CNc2nc(N)[nH]c(=O)c2C1

>  <category>
active

$$$$
>  <molecule>
CN(C)CCN1C(=O)c2cccc3c(N)ccc(c23)C1=O

>  <category>
inactive

$$$$
>  <molecule>
COc1ccc(N2CCN(CN3CCN(c4ccc(OC)cc4)C3)C2)cc1

>  <category>
inactive

$$$$
>  <molecule>
CC(C)(C)CC(C)(C)N(CSc1ccc(Cl)cc1)CSc1ccc(Cl)cc1

>  <category>
inactive

$$$$
>  <molecule>
CSC1=Nc2c(c(C)c(-c3ccccc3)n2CCCCl)C2=NC(=O)CN12

>  <category>
inactive

$$$$

--- query ---
*Q* Which outcome was assigned to O=C(Nc1ccc(Cl)cc1F)c1cc(F)ccc1O in this test?
*A* inactive

====

# System: HCT-116 colon
# method-summary: NCI tumour cell line growth inhibition, 48 h; in the data active = GI50 below about 0.43 µM; inactive = the rest
Choose one outcome from this list and give only that: active, inactive

Please review the following examples before continuing.
>  <molecule>
CN1C(=O)N(C)C2C1NN=c1s/c(=C\c3c[nH]c4ccccc34)c(=O)n12 (stereo not given)

>  <measurement-target>
HCT-116 colon

>  <category>
active

$$$$
>  <molecule>
O=c1c2[nH]c3ccccc3c2nc2n1CCS2

>  <measurement-target>
HCT-116 colon

>  <category>
inactive

$$$$
>  <molecule>
COc1ccc2c(O)c(/C=C3\N=Nc4ncccc43)oc2c1C[C@H]1CCNC[C@H]1F

>  <measurement-target>
HCT-116 colon

>  <category>
active

$$$$
>  <molecule>
C=CC[N+]1(CCO)CCN=C1CCCCCCCCCCCCC (stereo not given)

>  <measurement-target>
HCT-116 colon

>  <category>
inactive

$$$$
>  <molecule>
COc1cc(-c2cc(-c3nc4cc(Cl)c(Cl)cc4[nH]3)[nH]n2)cc(OC)c1OC

>  <measurement-target>
HCT-116 colon

>  <category>
inactive

$$$$

*Q* Which outcome was assigned to Clc1nc(Cl)c2ncn(C/C=C/Cn3cnc4c(Cl)nc(Cl)nc43)c2n1 in this test?
*A* inactive

====

# System: HCT-15 colon
# method-summary: NCI tumour cell line growth inhibition, 48 h
property-name: TGI

# example entries with known answers
>  <compound>
Nc1cc(S(=O)(=O)O)cc2cc(S(=O)(=O)O)c(N=Nc3ccc(-c4ccc(N=Nc5c(S(=O)(=O)O)cc6cc(S(=O)(=O)O)cc(N)c6c5O)cc4)cc3)c(O)c12

>  <test-value>
> 100 µM

$$$$
>  <compound>
COc1ccccc1-c1ccc2nc(NC(=O)Nc3cc(C(F)(F)F)cc(C(F)(F)F)c3)sc2c1

>  <test-value>
10.6 µM

$$$$
>  <compound>
CN/C=C(/c1ccc(OC)cc1)C(O)c1ccc(OC)c(OC)c1 (configuration not stated)

>  <test-value>
> 100 µM

$$$$
>  <compound>
COC(=O)C1=C([C@H]2COC(C)(C)O2)[C@H]2C[C@@H]1[C@@H]1OC(C)(C)O[C@@H]12

>  <test-value>
> 100 µM

$$$$
>  <compound>
CC(O)CCNC(=O)Nc1c(C(F)(F)F)cc(-c2ccccc2)[nH]c1=O (configuration not stated)

>  <test-value>
> 100 µM

$$$$
>  <compound>
Cc1ccc(/C=N/Nc2cc(C)c3ccccc3n2)s1

>  <test-value>
25.6 µM

$$$$

Dear colleague, could you send me TGI for each of the items below? Thanks.
1. CC(=O)Nc1ccc(-c2nc3ccccc3s2)cc1Cl
2. O=C1CCc2nc3ncccc3cc2C1
3. C/C(=C1/N=C(c2ccccc2)OC1=O)c1ccc(C)cc1
4. c1ccc(CCCC2Sc3cccc4cccc(c34)S2)cc1
5. CSc1c(S(C)=O)[nH]c2cc(Br)cc(Br)c12 (configuration not stated)
6. O=c1c2[nH]c3ccccc3c2nc2n1CCS2

*A*
> 100 µM
> 100 µM
> 100 µM
> 100 µM
70.8 µM
> 100 µM

Dear colleague, could you send me TGI for each of the items below? Thanks.
1. CCCCC1C(=O)N(c2ccc(S(=O)(=O)Nc3ccccn3)cc2)N(c2ccc(O)c(C(=O)O)c2)C1=O (configuration not stated)
2. C[n+]1c2ccccc2c(C(=O)NC(CCCN=C(N)N)C(=O)O)c2ccccc21 (configuration not stated)

*A*
["> 100 µM", "> 100 µM"]
